assay: yeast display, Sf9 membrane polyspecificity reagent, FACS + sequencing; frameworks hold sequencing errors
Measured Endpoint: polyreactivity (PSR sort gate)

Fill in: polyreactivity (PSR sort gate) of QVQLVESGGGLVQAGVSLRLSCAASGGILYWYAMGWSRQAPGKERELVAAIDWTGGSTYYADSVKGRFTISRDNAKNTVYLQMNSLKPEDTAVYYCAADSYWGSGVVPGYDYWGQGTQVTVSS is ___
low polyreactivity

Which polyreactivity (PSR sort gate) is reported for this sequence? QVQLVESGGGLVQAGGSLRLSCAASGRIFYIYTMGWYILAPGKERELVAGITRAGSTNYADSVKGRFTISRDNAKNTVYLQMNSLKPEDTAVYYSNAYIWIYGFDYCGQGTQVTVSS
high polyreactivity

Which measured polyreactivity (PSR sort gate) value corresponds to QVQLVESGGGLVQAGGSLRLSCAASGRIFGTYAMGWYRQAPGKERELVAAITRDGSTNYADSVKGRFTISRDNAKNTVYLQMYSLKTEDSAVYYCAAGYLPDPDDYDSWGQGTQVNVSS ?
low polyreactivity

Name the recorded polyreactivity (PSR sort gate) for QVQLVESGGGLDQAGGSLRLSCAASGFTFYRNAMGWYRQAPGKERELVAAITSGGSTYYADSVKGRFTISRDNAKNTVYLQMNSLKPEDTAVYYCAAYVWSGWGHWFYYWGQGTQVTVSS .
high polyreactivity

Fill blank: measured polyreactivity (PSR sort gate) of the sequence QVQLVESGGGLVQAGGSLRLSCAASGITFYGYAMGWYRQAPGKERELVAAISKSGGSTHYADSVKGRFTISRDNAKNTVYLQMNSLKPEDTAVYYCAAAYWTRLRRMDYWGQGTQVTVSS is ____.
low polyreactivity

Form field: reported polyreactivity (PSR sort gate) of QVQLVESGAGLVQAGGRLRLSCAASGSIFWRYAMGWSIQAPGKERELVAAINYSTTRTYYADSVKGRFTISRDNAKNTVYLQMNSLKPVDTAVYYCAADSRVDEGEYWGQGTQVTVSS
high polyreactivity

Further cases:
Requested read-out: polyreactivity (PSR sort gate). Entry: QVQLVESGGVLVQAGGSLRLSCAASGRTFLNYTMGWYRQAPRKDIELVAAISTSGGSTNYADSVKGRFTISRDNAKNTVYLQMTSLKPEDTAVYYCAAETSTKPEAYEYWGQGTQVTVSS
low polyreactivity

Sample QVQLVESGGGLVQAGGSLRLSCAASGSTFILKAMGWYRQAPGKERELVATISSSDTSPYYADSVKGRFTISRDTAKNTVYLQMNSLKPEDTAVYYCNADYYTTSYLQRVYHYGVDYDYWGQGTQVTVSS — what was its polyreactivity (PSR sort gate)?
low polyreactivity

# lookup: polyreactivity (PSR sort gate) of QVQLVESGGGLVQAGGSLRLSCAASGFIFSYYAMGWYRQAPGKERELVATITSGGSTNYADSVKGRFTISRDNAKNTVYLQMNSLKPEDTAVYYCNALPGVSHTQYDRVGYWGQGTQVTLSS
high polyreactivity

I'd like to know its polyreactivity (PSR sort gate). The sequence in question is QVQLVESGGGLVQAGGTLRLSCAPSGRIFKTYAMGWYRQAPGKERELVAAITNNGGSTYYADSVKGRFTISRDNAKNTVYLLMNSLKPEDTAVYYCAVYVKYHYPVVTTGYDYWGQGTQVTVSS
high polyreactivity

Would you mind telling me what polyreactivity (PSR sort gate) value was observed for QFQLVESGGGLVQAGGSLRLSCAASGFTSYRNALGWYRQAPGKERELVAAISRGDSTYYADSVKGRFTISRDNAKNTVYLQMNSLKAEDTAVYYCATPPTVYGWLAGYDYWGQGTQVTVSS ?
low polyreactivity

Entry source: the nanobody polyreactivity screen of Harvey et al. (2022)
